Assay: compound binding in COS7 lysate, probe aLAP1, primary screen, cell lysate, small-molecule microarray (AID 1124);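 further: lysate comes from COS7 cells expressing LAP1 and is applied at 0.3 µg/mL; score merges spot fluorescence near 667 nm with signal-to-noise over triplicate slides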
Conditions: probe aLAP1, fluorescence, higher = more signal
Would you mind telling me the reported composite z-score of each entry?
One number for each entry.

Example cases with answers are listed next.
compound	observable	reported_value
CCCCN1CC=CC23O[C@@H]4/C=C\CCC(C)OC(=O)C4[C@H]2C(=O)N(C(CO)C(C)C)[C@@H]3C1=O (stereo partly specified)	composite z-score	1.13
COc1ccc([Si](C)(C)[C@@H]2[C@@H](CC(=O)N3Cc4ccccc4C[C@H]3CO)O[C@]3(C(=O)N(C)c4ccccc43)[C@H]2C)cc1	composite z-score	-0.0284

Items follow; give composite z-score for each.
1. COCCOC(=O)N1C(=O)[C@@]2(c3cc(C#CC4=CCCCC4)ccc31)[C@H](C(=O)N1CCCCCCC1)[C@H]1C(=O)O[C@H](c3ccccc3)[C@H](c3ccccc3)N1[C@@H]2c1ccc(O)cc1
2. O=C(CS)NCCCCCNC(=O)[C@@H]1C[C@@H]2C(=O)N3CCC[C@H]3C(=O)N2[C@@H]1c1cccc(OCCO)c1
3. COC(=O)C(CC#Cc1ccc2c(c1)[C@]1(C(=O)N2)[C@H](C(=O)N2CCN(c3ncccn3)CC2)[C@H]2C(=O)O[C@H](c3ccccc3)[C@H](c3ccccc3)N2[C@@H]1c1ccc(OCCO)cc1)C(=O)OC
4. COc1ccccc1CN1C(=O)c2ccccc2[C@@]2(Cc3ccccc3N(CC(F)(F)F)C2=O)[C@@H]1c1ccc(CO)cc1

1: 0.147; 2: 0.503; 3: -0.192; 4: 2.4
